test: chemical genetic growth profiling, strain panel (AID 1159580);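 note: tested at 20 µM; growth read once vehicle control cultures reached saturation at 30 °C; lower values mean less growth of the strain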; details: S. cerevisiae deletion strains, growth OD, locus YER167W, strain BCK2
The campaign covered roughly 5,500 compounds. About 2,000 (36%) were called active. Not shown: some 18% with an inconclusive outcome. Cut-off read from the data, not from the text of the source: active = normalized growth mostly below about 0.91 (no sharp cut-off); inconclusive = no clear call, values can overlap the other calls; inactive = mostly above about 0.92. The list shows a part of the results.
Write down the outcome that applies. Available outcomes: active, inactive

Inquiry: What call does the record list for COc1cc([C@@H]2c3cc4c(cc3C(O[C@@H]3O[C@@H]5CO[C@@H](c6cccs6)OC5[C@H](O)[C@H]3O)C3COC(=O)[C@@H]32)OCO4)cc(OC)c1O (some centres not stated) ?
Reply text: inactive

Inquiry: Could you kindly confirm the outcome this assay logged for `Cc1cc2cc3c(C)cc(=O)oc3c(C)c2o1` ?
Reply text: inactive

Inquiry: What was the test verdict on `Cc1cc(=O)c2c(O)c3c(cc2o1)OC(C)(C)CC3` ?
Reply text: inactive

Inquiry: Hello, I am checking results. What call was entered for `CC(=O)Oc1c(-c2ccccc2)oc2c(CC=C(C)C)c3c(c(OC(C)=O)c2c1=O)C=CC(C)(C)O3` ?
Reply text: inactive

Inquiry: What did this assay record as the result for `Nc1nc(N)c2nc(-c3ccccc3)c(N)nc2n1` ?
Reply text: inactive

Inquiry: Would you mind telling me which call this test gave `C[N+]1(CCCCC[N+]2(C)CCCC2)CCCC1` ?
Reply text: inactive

Inquiry: Which result was noted for this molecule in the test: `CC(C)=CCc1c2c(c(O)c3c(=O)c(O)c(-c4ccccc4)oc13)C=CC(C)(C)O2`
Reply text: active

Inquiry: Just curious, what result did `Nc1ccc(C(=O)Oc2ccccc2)c(O)c1` get here?
Reply text: active

Inquiry: Test call, this molecule: COC(=O)C1=C(C)NC(C)=C(C(=O)OCCN(C)Cc2ccccc2)C1c1cccc([N+](=O)[O-])c1 (configuration not stated)
Reply text: inactive

Inquiry: # fetch the recorded call for Nc1ccc(C(=O)O)c(O)c1 (tested in a mixture with another compound) here
Reply text: inactive

Inquiry: Per the records of this test, what outcome belongs to `CCn1cc(C(=O)O)c(=O)c2cc(F)c(N3CCNCC3)cc21` ?
Reply text: inactive

Inquiry: Name the outcome recorded for `CC(=O)Nc1ccc(OC(=O)c2ccccc2O)cc1` in the assay.
Reply text: active

Inquiry: State the result this test recorded for `Cn1c(=O)c2[nH]c(C3CCCC3)nc2n(C)c1=O` .
Reply text: inactive

Inquiry: What classification did `COC(=O)C1=C(C)NC(C)=C(C(=O)OC)C1c1ccccc1[N+](=O)[O-]` end up with in this test?
Reply text: active

Inquiry: Status in this test for `COc1cccc(-c2cc(=O)c3ccc(OC)cc3o2)c1` ?
Reply text: inactive

Inquiry: Query: recorded result category for `O=c1c2ccccc2[se]n1-c1ccccc1` in this test
Reply text: active

Inquiry: Outcome logged for `COc1cc2c3cc1Oc1cc(ccc1O)C[C@@H]1c4c(cc(OC)c(O)c4Oc4ccc(cc4)C[C@@H]3N(C)CC2)CC[N+]1(C)C` in this assay:
Reply text: inactive

Inquiry: Call for entry CC(N)Cc1ccc(O)cc1 (configuration not stated) :
Reply text: inactive

Inquiry: Recorded call for CC(=O)O[C@@H]1CC2C(C)(C)C(=O)CC[C@]2(C)C2CC[C@@]3(C)[C@H](c4ccoc4)OC(=O)C4OC43[C@@]21C (some centres not stated) ?
Reply text: inactive

Inquiry: Write down the call the test reported for this molecule. Item: `O=C1CCc2cc(OCCCCc3nnnn3C3CCCCC3)ccc2N1`
Reply text: inactive

Inquiry: Call for entry CC(=O)O[C@H]1C[C@@H](O)C(C)(C)C2C[C@@H](OC(C)=O)[C@]3(C)C(CC[C@@]4(C)[C@H](c5ccoc5)OC(=O)C5OC543)[C@]21C (some centres not stated) :
Reply text: inactive

Inquiry: Could you please tell me the result logged for `O=c1[nH]c2cc(Cl)c(Cl)cc2[nH]c1=O` in this assay?
Reply text: inactive

Inquiry: For C=CCCCCCCCCCCCC(O)CC(O)CO (configuration not stated) , which call appears in the assay record?
Reply text: active

Inquiry: Query: recorded result category for `CC(=O)Nc1cccc(O)c1` in this test
Reply text: inactive

Inquiry: Could you check what this test reported for CC1(C)O[C@@H]2CC3C4C[C@H](F)C5=CC(=O)C=C[C@]5(C)[C@@]4(F)[C@@H](O)C[C@]3(C)[C@]2(C(=O)CO)O1 (some centres not stated) ?
Reply text: inactive

Inquiry: Which outcome was assigned to `Clc1ccc(Cl)cc1` in this test?
Reply text: inactive

Inquiry: For `NC(=O)CC[C@@H](N)C(=O)O` , what call appears in the results of this test?
Reply text: inactive

Inquiry: Give the logged outcome of this assay for the following molecule: `CC(=O)O.CC(=O)O.[Cd]`
Reply text: active

Inquiry: Outcome logged for `O=C(O)c1nc2cc(Cl)c(Cl)cc2[nH]c1=O` in this assay:
Reply text: inactive

Inquiry: Which outcome was entered for the molecule CC[N+]1(C)CCCC(OC(=O)C(O)(c2ccccc2)c2ccccc2)C1 (configuration not stated) in this test?
Reply text: inactive

Inquiry: Recorded test call requested for OC1C(O)C(O)C(O)C(O)C1O (configuration not stated)
Reply text: inactive

Inquiry: Test call for this molecule, please: `NCC(=O)CCC(=O)O`
Reply text: inactive

Inquiry: Entry `COc1cc([C@@H]2c3cc4c(cc3[C@H](O)[C@H]3COC(=O)[C@@H]23)OCO4)cc(OC)c1OC` : call = ?
Reply text: inactive

Inquiry: Field: outcome | Entry: CC(=O)O[C@@H]1CC2C(C)(C)CCC(=O)[C@]2(C)C2CC[C@@]3(C)[C@H](c4ccoc4)OC(=O)C4OC43[C@@]21C (some centres not stated)
Reply text: inactive

Inquiry: Per the records of this test, what outcome belongs to `Cc1cc(=O)c2c(o1)-c1c(cc(O)c(O)c1C(=O)O)OC2` ?
Reply text: inactive

Inquiry: Please let me know the test result on file for `NCCc1ccc(O)c(O)c1` .
Reply text: inactive

Inquiry: Test call, this molecule: `ClC(Cl)=C(c1ccc(Cl)cc1)c1ccc(Cl)cc1`
Reply text: active

Inquiry: I'd appreciate the recorded outcome for `CCC/C=C/C=C/[C@@H]1C[C@@H](O)[C@@H](O)C(=O)[C@H]1C=O` from this test.
Reply text: inactive

Inquiry: Kindly provide the recorded test outcome for the following molecule: CC(=O)O[C@H]1C[C@@]2(C)[C@H](c3ccoc3)OC(=O)[C@H]3O[C@]32[C@@]2(C)C1[C@]1(C)C(C[C@H]2OC(C)=O)C(C)(C)[C@H](OC(C)=O)C[C@@H]1OC(C)=O (some centres not stated)
Reply text: inactive

Inquiry: Hey, what did the test say about `COc1cc2cc[n+]3cc4c(OC)c(OC)ccc4cc3c2cc1OC` ?
Reply text: inactive

Inquiry: Which outcome was assigned to COCCOC(=O)C1=C(C)NC(C)=C(C(=O)OC(C)C)C1c1cccc([N+](=O)[O-])c1 (configuration not stated) in this test?
Reply text: inactive

Inquiry: Given `CC1=CCc2c(cc3oc(C)cc(=O)c3c2O)OC1` , state the outcome it received in this test.
Reply text: inactive
